The measured values listed here are drawn from patent US20160362487A1.

# TESTED TARGET: T1, human IL-33 (R&D Systems, #3625-IL-010/CF) (human, UniProt O95760 112-270)
# T1 construct: Commercial recombinant protein; also called hIL-33; interleukin-33
# T1 sequence (looked up): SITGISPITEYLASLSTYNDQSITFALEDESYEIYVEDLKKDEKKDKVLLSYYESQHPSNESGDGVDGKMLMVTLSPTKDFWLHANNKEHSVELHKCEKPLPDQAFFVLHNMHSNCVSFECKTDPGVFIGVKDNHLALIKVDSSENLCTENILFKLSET
# TEST DETAILS: BLI; hIL-33 pre-mixed with mAb-2 Isotype control 1
READOUT TYPE: mAb-1 Binding to the Pre-complex of mAb-2 & hIL-33
State the value with its unit after it.

May I ask what mAb-1 Binding to the Pre-complex of mAb-2 & hIL-33 has been recorded for H1M9566N (antibody, mouse IgG1, V domains shown, Human variable domains, mouse IgG1 Fc (H1M)) VH: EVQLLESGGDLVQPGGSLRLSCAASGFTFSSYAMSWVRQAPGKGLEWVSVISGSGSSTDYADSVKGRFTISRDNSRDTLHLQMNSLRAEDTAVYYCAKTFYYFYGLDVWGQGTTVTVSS VL: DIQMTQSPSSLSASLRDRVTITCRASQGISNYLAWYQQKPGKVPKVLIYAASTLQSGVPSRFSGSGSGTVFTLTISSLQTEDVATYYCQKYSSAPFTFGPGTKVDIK ?
0.06 nm

Could you do the same for H4H9629P (antibody, human IgG4, V domains shown, Human IgG4 Fc (H4H)) VH: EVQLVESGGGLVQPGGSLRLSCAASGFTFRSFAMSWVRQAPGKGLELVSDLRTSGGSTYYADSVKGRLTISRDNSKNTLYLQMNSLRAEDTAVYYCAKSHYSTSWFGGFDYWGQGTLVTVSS VL: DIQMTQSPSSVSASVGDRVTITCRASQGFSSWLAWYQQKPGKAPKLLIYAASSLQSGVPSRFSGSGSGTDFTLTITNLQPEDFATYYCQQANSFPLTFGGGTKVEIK , please?
0.22 nm

Could you do the same for H4H9671P (antibody, human IgG4, V domains shown, Human IgG4 Fc (H4H)) VH: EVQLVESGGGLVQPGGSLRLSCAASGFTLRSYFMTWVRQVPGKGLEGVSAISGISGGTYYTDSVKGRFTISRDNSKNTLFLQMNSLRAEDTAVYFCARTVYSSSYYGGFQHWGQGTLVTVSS VL: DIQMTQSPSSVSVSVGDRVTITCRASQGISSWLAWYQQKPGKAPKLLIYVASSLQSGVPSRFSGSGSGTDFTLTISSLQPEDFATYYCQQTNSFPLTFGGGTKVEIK , please?
0.13 nm

Could you do the same for H4H9667P (antibody, human IgG4, V domains shown, Human IgG4 Fc (H4H)) VH: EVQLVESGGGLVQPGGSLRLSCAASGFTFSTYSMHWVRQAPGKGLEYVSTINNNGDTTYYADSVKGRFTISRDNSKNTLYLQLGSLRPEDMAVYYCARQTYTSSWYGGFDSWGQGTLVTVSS VL: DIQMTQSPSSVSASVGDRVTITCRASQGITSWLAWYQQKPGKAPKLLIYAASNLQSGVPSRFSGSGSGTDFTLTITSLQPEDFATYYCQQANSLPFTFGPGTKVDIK , please?
0.23 nm

Could you do the same for H4H9676P (antibody, human IgG4, V domains shown, Human IgG4 Fc (H4H)) VH: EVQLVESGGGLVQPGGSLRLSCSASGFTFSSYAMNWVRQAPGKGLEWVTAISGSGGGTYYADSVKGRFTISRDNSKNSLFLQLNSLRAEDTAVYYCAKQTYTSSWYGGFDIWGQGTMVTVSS VL: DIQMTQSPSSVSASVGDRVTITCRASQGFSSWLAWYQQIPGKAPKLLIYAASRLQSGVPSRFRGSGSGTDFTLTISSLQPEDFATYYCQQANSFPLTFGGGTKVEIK , please?
0.11 nm

Could you do the same for H1M9568N (antibody, mouse IgG1, V domains shown, Human variable domains, mouse IgG1 Fc (H1M)) VH: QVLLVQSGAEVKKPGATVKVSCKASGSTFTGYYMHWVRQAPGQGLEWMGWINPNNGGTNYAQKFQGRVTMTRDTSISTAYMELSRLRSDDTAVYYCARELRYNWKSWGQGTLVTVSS VL: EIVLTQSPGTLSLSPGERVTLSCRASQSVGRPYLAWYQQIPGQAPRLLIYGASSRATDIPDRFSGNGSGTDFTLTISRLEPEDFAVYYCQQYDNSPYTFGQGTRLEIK , please?
0.05 nm

Could you do the same for H4H9666P (antibody, human IgG4, V domains shown, Human IgG4 Fc (H4H)) VH: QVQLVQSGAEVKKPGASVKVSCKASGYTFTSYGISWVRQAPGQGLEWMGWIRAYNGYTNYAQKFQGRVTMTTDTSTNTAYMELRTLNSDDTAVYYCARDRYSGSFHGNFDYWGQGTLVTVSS VL: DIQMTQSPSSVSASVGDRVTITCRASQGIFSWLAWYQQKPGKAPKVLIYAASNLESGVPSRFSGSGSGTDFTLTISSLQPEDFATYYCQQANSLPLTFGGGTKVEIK , please?
0.15 nm
